Each recorded value in this set is attributed to patent US20130266566A1.

target: cynomolgus PAI-1 (cynomolgus, UniProt P05121 24-402 (human entry), limits assumed); test: cell-based or functional assay
REPORTED_METRIC: Chromogenic IC50 ratio cyno/human (fold)

INSERT INTO assay_data (binder, quantitative_result) VALUES
  ('Antibody 06 scFv (scFv) QVQLQQSGAEVKKPGSSVKVSCKASGGTFSSYAISWVRQAPGQGLEWMGGIIPTFGTANYAQKFQGRVTITADESTSTAYMELSGLRSEDTAVYYCAREKRQWLEGHFDYWGRGTPVTVSSDIQMTQSPSFLSASIGDRVTITCRASEGIYHELAWYQQKPGKAPKLLIYRASSLASGAPSRFSGSGSGTDFTLTISSLQPDDFATYYCQQYSNYPLTFGRGTKLEIK', 0.4),
  ('Antibody 04 scFv (scFv) QVRLQQSGAEVKKPGSSVKVSCKASGGTFSSYAISWVRQAPGQGLEWMGGIIPTFGTANYAQKFRGRVTITANESTSTAYMELSGLRSEDTAVYYCAREKRQWLEGRFDYWGRGTLVTVSSDIQMTQSPSFLSASIGDRITITCRASEGIYHSLAWYQQKPGKAPKLLIHRATSLASGTPSRFGGSGSGTDFALTISSLQPDDFATYYCQQYSNYPLTFGGGTKLEIK', 0.3),
  ('Antibody 23 scFv (scFv) QVQLQQSGAEVKKPGSSVKVSCKASGGTFSSYAISWVRQAPGQGLEWMGGIIPTFGTANYAQKFQSRVTITADESTSTAYMELSGLRSEDTAVYYCAREKRQWLEGHFDYWGRGTPVTVSSDIQMTQSPSFLSASIGDRVTITCRASEGIYHSLAWYQQKPGKAPKLLIYRASSLASGAPSRFSGSGSGTDFTLTISSLQPDDFATYYCQQYSNYPLTFGGGTKLEIK', 0.3),
  ('Antibody 18 scFv (scFv) QVQLQQSGAEVKKPGSSVKVSCKASGGTFSSYAISWVRQAPGQGLEWMGGIIPTFGTANYAQKLQGRVTITADESTSTAYMELSGLRSEDTAVYYCAREKRQWLEGHFDYWGRGTPVTVSSDIQMTQSPSFLSASIGDRVTITCRASEGIYHALAWYQQKPGKAPKLLIYRASSLASGAPSRFSGSGSGTDFTLTISSLQPDDFATYYCQQYSNYPLTFGGGTKLEIK', 0.4),
  ('Antibody 12 scFv (scFv) QVQLQQSGAEVKKPGSSVKVSCKASGGTFSSYAISWVRQAPGQGLEWMGGIIPTFPTANYAQKFQGRVTITADESTSTAYMELSGLRSEDTAVYYCAREKRQWLEGHFDYWGRGTPVTVSSDIQMTQSPSFLSASIGDRVTITCRASEGIYHNLAWYQQKPGKAPKLLIYRASSLASGAPSRFSGSGSGTDFTLTISSLQPDDFATYYCQQYSNYPLTFGGGTKLEIK', 0.3);
